Tested on: C. albicans (ATCC 10231)
settings: ATCC 10231
result.type: MIC, Fungi C. albicans (µg/mL)
Give a bare numeral; the unit µg/mL is implied.

molecule	MIC, Fungi C. albicans, µg/mL
CC(C)CCC(=O)N1CC(=O)N[C@@H](Cc2ccccc2)CN(C(=O)CCC(C)C)CC(=O)N[C@@H](Cc2ccccc2)CN(C(=O)CCC(C)C)CC(=O)N[C@@H](CCCCN)CN(C(=O)CCc2ccccc2)CC(=O)N[C@@H](CCCCN)CN(C(=O)CCc2ccccc2)CC(=O)N[C@@H](CCCCN)CN(C(=O)CCc2ccccc2)CC(=O)N[C@@H](Cc2ccccc2)CN(CC(N)=O)C(=O)CCC(=O)N[C@@H](Cc2ccccc2)C1	4

Exercise: Output measured MIC, Fungi C. albicans for this item: CCCCCCCC/C=C\CCCCCCCC(=O)N[C@@H](CCCCN)CN(CC(N)=O)C(=O)CCCN
Solution: 1.5
